# Tested system: Guanine nucleotide-binding protein G(q) subunit alpha (Homo sapiens) (UniProt P50148)
# Sequence (whole entry): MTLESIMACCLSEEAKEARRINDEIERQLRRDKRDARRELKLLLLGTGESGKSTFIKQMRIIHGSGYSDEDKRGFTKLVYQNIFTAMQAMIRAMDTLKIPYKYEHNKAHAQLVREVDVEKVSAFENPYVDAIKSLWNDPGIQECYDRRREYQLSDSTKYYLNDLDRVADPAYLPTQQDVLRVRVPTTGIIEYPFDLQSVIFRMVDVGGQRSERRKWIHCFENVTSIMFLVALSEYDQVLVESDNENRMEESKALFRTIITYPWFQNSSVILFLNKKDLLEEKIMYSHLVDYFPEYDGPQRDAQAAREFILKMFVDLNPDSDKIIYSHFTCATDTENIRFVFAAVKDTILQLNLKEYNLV
# Assay text: Binding affinity to Galphaq (unknown origin) expressed in baculovirus-infected insect Hi5 cells assessed as inhibition of BODIPY FL GTPgammaS binding by measuring fluorescence reduction at 30 to 300 uM preincubated for 30 mins followed by BODIPY FL GTPgammaS addition measured for 60 mins by real time nucleotide exchange assay relative to vehicle-treated control
# Protocol conditions: BTI-TN-5B1-4
Quick list: inhibition per entry.
Experimental readout: inhibition (%)

[[record]]
smiles_str = "CCC[C@H]1C[C@](C)(C(=O)CNc2ccccn2)OC1=O"
result_operator = "<"
recorded_measurement = 10

[[record]]
smiles_str = "CC(=O)C1=C(C)NC(C(C#N)C#N)=C(C#N)[C@H]1c1ccccc1"
result_operator = "="
recorded_measurement = 40

[[record]]
smiles_str = "CC(=O)/C(=C(\\C)O)[C@@H]1c2ccccc2O[C@H](C(F)(F)F)[C@@H]1[N+](=O)[O-]"
result_operator = "="
recorded_measurement = 35

[[record]]
smiles_str = "SC1=C2CCCCC2=[N+](C[C@@H]2CCCO2)[C@@H](c2ccccc2)N1"
result_operator = "<"
recorded_measurement = 10

[[record]]
smiles_str = "O=[N+]([O-])[C-](/C=N/C1CCCCC1)/C=N/C1CCCCC1"
result_operator = "="
recorded_measurement = 32

[[record]]
smiles_str = "C/C(=N\\c1ccc(O)cc1)c1sc2ccccc2c1O"
result_operator = "<"
recorded_measurement = 10

[[record]]
smiles_str = "CCc1ccc2c(C)nc(NC3=NC(C)(C)CC(C)=N3)nc2c1"
result_operator = "="
recorded_measurement = 50

[[record]]
smiles_str = "C1=C(/N=C/c2ccccc2)[N+](Cc2ccccc2)=CCO1"
result_operator = "<"
recorded_measurement = 10

[[record]]
smiles_str = "Cc1nc(NC(=O)NCCC2=CSC3=NCCCN23)nn1C"
result_operator = "="
recorded_measurement = 27

[[record]]
smiles_str = "CC1=CC(C)(C)NC(Nc2nc(-c3ccccc3)c3ccccc3n2)=N1"
result_operator = "<"
recorded_measurement = 10

[[record]]
smiles_str = "Cc1cccc(N[C@@]2(C(F)(F)F)NC(c3ccccc3)=NC2=O)n1"
result_operator = "="
recorded_measurement = 25

